Tested on: SF-268 CNS
Test: NCI-60 one-dose screen, 48 h (100 = growth as untreated, 0 = no growth, -100 = all killed)
Conditions: 10 µM unless noted
Experimental: Cells are grown in 96 well plates and exposed to the test compound for 48 hours. Compounds are tested at a single concentration, which is 10^-5 M for most compounds. The reported endpoint is percent growth (GI% or GIPRCNT), where numbers from 0 - 100% represent growth inhibition, and numbers from -100% - 0 represent cell death. For example, a value of 40 represents 60% growth inhibition. A value of 0 means no net growth occurred over the course of the experiment. […]
Compounds without any hit were thinned out: in the full panel of roughly 83,000, 20% have a hit. Activity calls are given as the source filed them. The calls were made as follows: active = growth percent below 10; inactive = the rest.
Give growth for every item shown.

Data request: What value of growth has been recorded for this entry: C/C(=N\NC(=S)Nc1ccccc1)c1ccccn1
Data returned: 43.3% (inactive)

Data request: What value of growth has been recorded for this entry: CCN(CC)C(Cl)=Nc1ccc(Cl)cc1
Data returned: 106% (inactive)

Data request: What value of growth has been recorded for this entry: CCCCCCCCCCCCCCCCOc1ccc(S(=O)(=O)N(C)C)cc1[N+](=O)[O-]
Data returned: 97.5% (inactive)

Data request: What value of growth has been recorded for this entry: CCC(=O)NC(O)C(Cl)(Cl)C(C)Cl (stereo unspecified)
Data returned: 109% (inactive)

Data request: What value of growth has been recorded for this entry: CCc1ccc2c(c1)N(CCO)C1=C(C(=O)OC1)C2c1cccc(Cl)c1 (stereo unspecified)
Data returned: 44.9% (inactive)

Data request: What value of growth has been recorded for this entry: Cc1cc(C)c2c(n1)sc1c(Nc3ccc(OCc4ccccc4)cc3)ncnc12
Data returned: 101% (inactive)

----------
Give growth for every item shown.
System: LOX IMVI melanoma
Assay: NCI-60 one-dose screen, 48 h (100 = growth as untreated, 0 = no growth, -100 = all killed)
Conditions: 10 µM unless noted
This is part of a sample that, as a whole, favours compounds with a hit. Of some 83,000 tested, about 20% had one in any assay.
Supply the numeric figure in %, leaving out any unit text.

Data request: What growth appears in the records for this molecule with LOX IMVI melanoma? Cc1cc(NC(=O)c2ccc(N)cc2)ccc1N=Nc1ccc2cc(S(=O)(=O)O)cc(S(=O)(=O)O)c2c1
Data returned: 99

Data request: What growth appears in the records for this molecule with LOX IMVI melanoma? COc1ccc(CCN2COc3c([C@@H](C)CCC=C(C)C)ccc(C)c3C2)cc1OC
Data returned: 64.3

Data request: What growth appears in the records for this molecule with LOX IMVI melanoma? CCc1ccc2c(c1)N(CCO)C1=C(C(=O)OC1)C2c1cccc(Cl)c1 (stereo not given)
Data returned: 44.3

Data request: What growth appears in the records for this molecule with LOX IMVI melanoma? CCCc1n(Cc2ccc3ccccc3n2)cc[n+]1Cc1ccc2ccccc2c1
Data returned: -63.8

Data request: What growth appears in the records for this molecule with LOX IMVI melanoma? CCN(CC)c1ccc(C(=N)c2ccc(N(C)C)cc2)cc1
Data returned: 19.1

Data request: What growth appears in the records for this molecule with LOX IMVI melanoma? CC(=O)OC1Oc2cc(C)c(C)cc2-c2oc(=O)c(-c3ccc(F)cc3)cc21 (stereo not given)
Data returned: 60.2

Data request: What growth appears in the records for this molecule with LOX IMVI melanoma? CC(C)(C)NC(=O)C(OC(=O)C1CCc2cc(F)ccc2O1)c1ccccc1Cl (stereo not given)
Data returned: 102

Data request: What growth appears in the records for this molecule with LOX IMVI melanoma? O=C(Cn1nncc1CN1C(=O)CSC1=O)Nc1ccc(F)cc1
Data returned: 94.9

Data request: What growth appears in the records for this molecule with LOX IMVI melanoma? C=C(C)c1ccc(/C=N/NC(N)=S)cc1
Data returned: 97.4

Data request: What growth appears in the records for this molecule with LOX IMVI melanoma? c1ccc(C(CC2=NCCCN2)c2ccccc2)cc1
Data returned: 97.8

Cited source for all entries: PubChem BioAssay (NCI)
